Exercise: for every item that follows, state its recorded EC50.
# System: genotype 1b-Con1 subgenomic replicon cell line
# Experiment summary: HCV Polymerase Replicon Assay (genotype 1b-Con1, luciferase reporter)
# Format: cell-based
# Condition info: Hepatitis C virus, 72 h, 1b-Con1 replicon, three days

## Input Reported EC50, molecule COc1c(-c2ccc3c(c2)CC=C3CNS(C)(=O)=O)cc(-c2c[nH]c(=O)[nH]c2=O)cc1-c1ccc(C)o1 : ____
## Output 10 to 100 nM

## Input For COc1c(-c2ccc3cc(NS(C)(=O)=O)ccc3c2)cc(-c2c[nH]c(=O)[nH]c2=O)cc1C(F)(F)F , what is its reported EC50?
## Output ≤ 10 nM

## Input Value lookup for EC50; key = COc1c(-c2ccc3cc(NS(C)(=O)=O)ccc3c2)cc(-c2c[nH]c(=O)[nH]c2=O)cc1C(F)(F)C(F)(F)F
## Output 10 to 100 nM

## Input Item under review: COc1c(-c2ccc3cc(NS(C)(=O)=O)ccc3c2)cc(N2CCCS2(=O)=O)cc1C(C)(C)C . Reported EC50?
## Output 10 to 100 nM

## Input Param item = CCNC(=O)Nc1cc(-c2ccc3cc(NS(C)(=O)=O)ccc3c2)c(OC)c(C(C)(C)C)c1 ; retrieve measured EC50.
## Output 100 to 1000 nM

## Input Field request: EC50 | item: C=Cc1c(-c2ccc3cc(NS(C)(=O)=O)ccc3c2)cc(-c2c[nH]c(=O)[nH]c2=O)cc1C(C)(C)C
## Output ≤ 10 nM

## Input Query: EC50; subject: COc1c(-c2ccc3c(c2)CCC3O)cc(-c2c[nH]c(=O)[nH]c2=O)cc1C(C)(C)C (stereo not shown)
## Output > 1000 nM

====

# Test system: genotype 1a-H77 subgenomic replicon cell line
# Experiment summary: HCV Polymerase Replicon Assay (genotype 1a-H77, luciferase reporter)
# Format: cell-based
# Condition info: Hepatitis C virus, 72 h, 1a-H77 replicon, three days
Measured attribute: EC50

## Input Requested read-out: EC50. Entry: CC(C)(C)c1cc(-c2c[nH]c(=O)[nH]c2=O)cc(-c2ccc3cc(NS(C)(=O)=O)ccc3c2)c1I [compound 34]
## Output 0.1 to 1 µM

## Input What does the data say about its EC50? Entry: COc1c(Br)cc(-c2c[nH]c(=O)[nH]c2=O)cc1C(C)(C)C [compound 5]
## Output > 1 µM

## Input Reported EC50 for CCNC(=O)Nc1cc(-c2ccc3cc(NS(C)(=O)=O)ccc3c2)c(OC)c(C(C)(C)C)c1 [compound 22] : what is it?
## Output 0.1 to 1 µM

## Input Entry under review: CC(C)(C)c1cc(-c2c[nH]c(=O)[nH]c2=O)cc(-c2ccc3cc(NS(C)(=O)=O)ccc3c2)c1N [compound 33] . Reported EC50?
## Output 0.1 to 1 µM

## Input Quick check: EC50 of COc1c(-c2ccc3cc(NS(C)(=O)=O)ccc3c2)cc(-c2c[nH]c(=O)[nH]c2=O)cc1C(C)(C)C [compound 28] ?
## Output ≤ 0.01 µM

## Input Entry COc1c(-c2ccc3cc(NS(C)(=O)=O)ccc3c2)cc(N2CCOC2=O)cc1C(C)(C)C [compound 25] has what EC50?
## Output > 1 µM

## Input Recorded EC50 for COc1c(/C=C/c2ccc(NS(C)(=O)=O)cc2)cc(-c2c[nH]c(=O)[nH]c2=O)cc1C(F)(F)F [compound 50] , please?
## Output 0.1 to 1 µM
